Parameter 'readout' = pIC50; parameter 'system' = Full length EN PA (influenza endonuclease) (Influenza A virus).
pIC50: −log10 of the molar value.

CN1C[C@H]([C@H](c2ccccc2)n2cc(C#CC3CC3)c(C#CC3CC3)n2)n2ncc(=O)c(O)c2C1=O ... ≤ 6.00
CC(C)OC(=O)OCOc1c2n(ncc1=O)[C@@H](C(c1ccccc1)c1ccccc1)CN(C(C)C)C2=O ... ≤ 6.00
C#Cc1cn([C@@H](c2ccccc2)[C@H]2CN(C)C(=O)c3c(O)c(=O)cnn32)nc1C#C ... > 6.60

Shift focus to the following entry.
Q: State pIC50 (Full length EN PA (influenza endonuclease) (Influenza A virus)) of `CC(=O)Oc1c2n(ncc1=O)[C@@H](C(c1cccc(Cl)c1)c1cccc(Cl)c1)CN(C(C)C)C2=O` .
Ans: > 6.60
